assay info: Passage on the culture model of the blood-brain barrier (bidirectional permeability)
Assay type: in vitro ADME, rat
assay conditions: rat, 10 μM; read-out: Efflux ratio: Papp BA/PappAB
Examples of compounds with documented efflux ratio at 60 min, 10 μM follow.

Consider the worked cases shown below.
# compound, efflux ratio at 60 min, 10 μM
rows = [
    ("CN(C)CCNC(=O)c1cc(O)c2ccccc2n1.Cl [comparative 24/2, reference compound]", "~1"),
    ("CN(C)CCNC(=O)c1nc2ccccc2c(O)c1CN1CCOCC1", "~0.5"),
    ("Cl.O=C(O)c1nc2ccccc2c(O)c1CN1CCOCC1", "~0.5"),
]

For this compound ( O=C(NCCN1CCCC1)c1nc2ccccc2c(O)c1CN1CCOCC1 ), measured efflux ratio at 60 min, 10 μM is ~1

For this compound ( Cl.O=C(NCCN1CCCC1)c1cc(O)c2ccccc2n1 [comparative 24/1, reference compound] ), measured efflux ratio at 60 min, 10 μM is ~1
